Assay: circular dichroism
Conditions: 50 mM sodium phosphate (stated for FIG. 5; assumed for the rest); pH 8.0; ns °C
measure name: helicity (%)
Numbers only; they are read as %.

Exam item: Tell me its helicity given CC(=O)N1CCC[C@]12CC=CC[C@@](C)(C(=O)N[C@@H](CCCCN)C(=O)N[C@@H](CCCNC(=N)N)C(=O)N[C@@H](C)C(=O)N[C@@H](CCCNC(=N)N)C(=O)N[C@@H](CC(N)=O)C(=O)N[C@H](C(=O)N[C@@H](CCC(=O)O)C(=O)N[C@]1(C)CC=CCNC(=O)[C@H](Cc3c[nH]c4ccccc34)NC(=O)[C@H](C)NC1=O)[C@@H](C)O)NC(=O)[C@H](C)NC(=O)[C@H](C)NC2=O as the entry.
Marked response: 64

Exam item: Supply measured helicity of CC(=O)N1CCC[C@]12CC=CC[C@@](C)(C(=O)N[C@@H](CCCCN)C(=O)N[C@@H](CCCNC(=N)N)C(=O)N[C@@H](C)C(=O)N[C@@H](CCCNC(=N)N)C(=O)N[C@@H](CC(N)=O)C(=O)N[C@H](C(=O)N[C@@H](CCC(=O)O)C(=O)N[C@]1(C)CCC=CCCNC(=O)[C@H](Cc3c[nH]c4ccccc34)NC(=O)[C@H](C)NC1=O)[C@@H](C)O)NC(=O)[C@H](C)NC(=O)[C@H](C)NC2=O in your reply.
Marked response: 80

Exam item: Please supply the value of reported helicity for the item CC(=O)N1CCC[C@]12CC=CCCCC1(CCCC=CCCC[C@](C)(C(=O)N[C@@H](CC(N)=O)C(=O)N[C@H](C(=O)N[C@@H](CCC(=O)O)C(=O)N[C@@H](C)C(=O)N[C@@H](C)C(=O)N[C@@H](Cc3c[nH]c4ccccc34)C(N)=O)[C@@H](C)O)NC(=O)[C@H](C)NC(=O)[C@H](CCCNC(=N)N)NC(=O)[C@H](CCCCN)NC1=O)NC(=O)[C@H](C)NC(=O)[C@H](C)NC2=O (stereo partly drawn)
Marked response: 47
